Reference for the values: the supplement of paper PMC8371130

# System: HL-1
# ASSAY EXPLANATION: relative cell viability (CellTiter-Glo) vs DMSO control (% of DMSO control); higher = more viable cells
# CONDITION DETAILS: oxygen condition: hypoxia 48 h (1% O2) + reoxygenation 24 h; 40 nM
PROPERTY: relative cell viability
A bare number is all that is needed in reply.

Past entries and their recorded results:
Fc1ccc(C(c2ccc(F)cc2)N2CCN(C/C=C/c3ccccc3)CC2)cc1 [Flunarizine 2HCl]
93.6
CC1(C)[C@@H](OC(=O)CCC(=O)O)CC[C@]2(C)[C@H]3C(=O)C=C4[C@@H]5C[C@@](C)(C(=O)O)CC[C@]5(C)CC[C@@]4(C)[C@]3(C)CC[C@@H]12 [Carbenoxolone Sodium]
94.3

Given the compound CCCC1O[C@@H]2C[C@H]3[C@@H]4CCC5=CC(=O)C=C[C@]5(C)[C@H]4[C@@H](O)C[C@]3(C)[C@]2(C(=O)CO)O1 (some centres not stated) [Budesonide] , what is its reported relative cell viability?
95.2
